The origin of these recorded values is patent US20230061973A1.

Quick list: Mean OD at plasma conc. 1.60 ng/mL per entry.
# assayed-target: T1, exemplary TAT frataxin fusion molecule (HIV-1, UniProt Q16595 1-210)
# T1 construct: in the bridging assays biotinylated and sulfotagged forms were used; also called TAT-FXN fusion molecule; TAT FXN fusion molecule
# T1 sequence: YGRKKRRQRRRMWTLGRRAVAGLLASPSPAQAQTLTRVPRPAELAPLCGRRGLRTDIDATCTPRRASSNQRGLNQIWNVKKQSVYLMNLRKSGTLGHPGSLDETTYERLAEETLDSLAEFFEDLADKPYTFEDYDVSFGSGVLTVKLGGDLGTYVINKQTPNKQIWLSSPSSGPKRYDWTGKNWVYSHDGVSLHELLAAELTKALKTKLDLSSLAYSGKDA
# procedure-details: PK sandwich ELISA in human plasma, antibody as capture, HRP anti-frataxin mAb detection
Enter your answer as a number in OD; do not include the unit.

Known results for binders:
binder	Mean OD at plasma conc. 1.60 ng/mL / OD
antibody 12-1 (antibody, V domains shown, Rabbit monoclonal) VH: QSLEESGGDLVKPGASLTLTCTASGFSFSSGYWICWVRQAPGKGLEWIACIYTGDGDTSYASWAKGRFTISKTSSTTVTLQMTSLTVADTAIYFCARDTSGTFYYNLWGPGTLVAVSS VL: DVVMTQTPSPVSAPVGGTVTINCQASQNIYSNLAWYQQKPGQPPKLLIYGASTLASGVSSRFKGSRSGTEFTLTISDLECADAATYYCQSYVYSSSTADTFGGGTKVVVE	0.137
antibody 12-3 (antibody, V domains shown, Rabbit monoclonal) VH: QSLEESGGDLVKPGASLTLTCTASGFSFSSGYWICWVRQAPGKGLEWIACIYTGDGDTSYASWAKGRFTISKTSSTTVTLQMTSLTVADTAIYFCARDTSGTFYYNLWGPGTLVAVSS VL: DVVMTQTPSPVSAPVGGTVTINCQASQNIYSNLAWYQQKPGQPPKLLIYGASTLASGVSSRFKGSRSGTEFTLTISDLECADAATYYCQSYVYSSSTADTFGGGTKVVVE	0.133

Shifting focus to the binder that follows.
Lab note: measured Mean OD at plasma conc. 1.60 ng/mL of antibody 10-4 (antibody, V domains shown, Rabbit monoclonal) VH: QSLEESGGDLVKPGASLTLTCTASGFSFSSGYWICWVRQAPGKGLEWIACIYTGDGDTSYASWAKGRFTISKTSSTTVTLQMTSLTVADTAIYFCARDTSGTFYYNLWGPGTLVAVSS VL: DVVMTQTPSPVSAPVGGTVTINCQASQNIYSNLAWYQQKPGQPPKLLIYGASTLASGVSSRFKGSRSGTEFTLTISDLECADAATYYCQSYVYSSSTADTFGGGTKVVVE was 0.14
